Hey, just so you know, these numbers are from ChEMBL document CHEMBL4346704.

- Assay Name: Binding affinity to polyA-polyU dsRNA (unknown origin) assessed as hypochromic effect by UV-vis spectrophotometric method relative to control
- Assay type: nucleic-acid assay
- Design: concentration or dose not given beside the values
Entries and their Activity values follow.
Hey, just the number and the unit after it is fine.

Worked examples follow.
record_smiles=Cl.Cl.c1cc2[nH]c(-c3ccc(Cn4cc(COCc5cn(Cc6ccc(-c7nc8cc(C9=NCCN9)ccc8[nH]7)o6)nn5)nn4)o3)nc2cc1C1=NCCN1 val=22%
record_smiles=Clc1ccc2[nH]c(-c3ccc(Cn4cc(COc5ccc(OCc6cn(Cc7ccc(-c8nc9cc(Cl)ccc9[nH]8)o7)nn6)cc5)nn4)o3)nc2c1 val=7%

Continue with the compound presented below.
GET /value?item= Cl.Cl.c1cc(OCc2cn(Cc3ccc(-c4nc5cc(C6=NCCN6)ccc5[nH]4)o3)nn2)ccc1OCc1cn(Cc2ccc(-c3nc4cc(C5=NCCN5)ccc4[nH]3)o2)nn1 &field=Activity returns 11%

====

- Tested on: Calf thymus DNA
- Assay Name: Binding affinity to calf thymus DNA by UV-vis spectrophotometric method
- Assay type: nucleic-acid assay
- Condition Context: Bos taurus
Recorded log Ks, one value per entry.
Keep the answer to the number alone.

Given item Fc1ccc2[nH]c(-c3ccc(Cn4cc(CCCc5cn(Cc6ccc(-c7nc8cc(F)ccc8[nH]7)o6)nn5)nn4)o3)nc2c1 , the value recorded as its log Ks is 6.56

Sample CC(C)NC(=N)c1ccc2[nH]c(-c3ccc(Cn4cc(COCc5cn(Cc6ccc(-c7nc8cc(C(=N)NC(C)C)ccc8[nH]7)o6)nn5)nn4)o3)nc2c1 ; log Ks observed: 5.68

====

- Tested on: Calf thymus DNA
- Assay Name: Binding affinity to calf thymus DNA assessed as change in melting temperature at compound to calf thymus DNA polynucleotide ratio of 0.3 by spectrophotometric analysis
- Format: nucleic-acid assay
- Condition Context: Bos taurus
Result Type: ΔTm (°C)
Provide the reading as a plain figure in °C.

See these solved cases before continuing.
record_smiles=Clc1ccc2[nH]c(-c3ccc(Cn4cc(CCCc5cn(Cc6ccc(-c7nc8cc(Cl)ccc8[nH]7)o6)nn5)nn4)o3)nc2c1 result_unit=°C val=4.1
record_smiles=Clc1ccc2[nH]c(-c3ccc(Cn4cc(COc5ccc(-c6ccc(OCc7cn(Cc8ccc(-c9nc%10cc(Cl)ccc%10[nH]9)o8)nn7)cc6)cc5)nn4)o3)nc2c1 result_unit=°C val=0
record_smiles=Fc1ccc2[nH]c(-c3ccc(Cn4cc(COc5ccc(-c6ccc(OCc7cn(Cc8ccc(-c9nc%10cc(F)ccc%10[nH]9)o8)nn7)cc6)cc5)nn4)o3)nc2c1 result_unit=°C val=0
record_smiles=Fc1ccc2[nH]c(-c3ccc(Cn4cc(COCc5cn(Cc6ccc(-c7nc8cc(F)ccc8[nH]7)o6)nn5)nn4)o3)nc2c1 result_unit=°C val=0.5

Field: next compound
Lab note: measured ΔTm of c1cc(-c2ccc(OCc3cn(Cc4ccc(-c5nc6cc(C7=NCCN7)ccc6[nH]5)o4)nn3)cc2)ccc1OCc1cn(Cc2ccc(-c3nc4cc(C5=NCCN5)ccc4[nH]3)o2)nn1 was 2.6

====

- Test system: Calf thymus DNA
- Assay Name: Binding affinity to calf thymus DNA assessed as conformational change by circular dichroism analysis
- Assay type: nucleic-acid assay
- Condition Context: Bos taurus
Active and inactive are the calls of the source. No cut-off for these calls is given here.
Result Type: Activity

Here's what some known entries look like.
record_smiles=CC(C)NC(=N)c1ccc2[nH]c(-c3ccc(Cn4cc(COCc5cn(Cc6ccc(-c7nc8cc(C(=N)NC(C)C)ccc8[nH]7)o6)nn5)nn4)o3)nc2c1 target="Calf thymus DNA" val=Active
record_smiles=CC(C)NC(=N)c1ccc2[nH]c(-c3ccc(Cn4cc(CCCc5cn(Cc6ccc(-c7nc8cc(C(=N)NC(C)C)ccc8[nH]7)o6)nn5)nn4)o3)nc2c1.Cl.Cl target="Calf thymus DNA" val=Active
record_smiles=N=C(N)c1ccc2[nH]c(-c3ccc(Cn4cc(COc5ccc(-c6ccc(OCc7cn(Cc8ccc(-c9nc%10cc(C(=N)N)ccc%10[nH]9)o8)nn7)cc6)cc5)nn4)o3)nc2c1 target="Calf thymus DNA" val=Active
record_smiles=Cl.Cl.N=C(N)c1ccc2[nH]c(-c3ccc(Cn4cc(COc5ccc(OCc6cn(Cc7ccc(-c8nc9cc(C(=N)N)ccc9[nH]8)o7)nn6)cc5)nn4)o3)nc2c1 target="Calf thymus DNA" val=Active
record_smiles=CC(C)NC(=N)c1ccc2[nH]c(-c3ccc(Cn4cc(COc5ccc(-c6ccc(OCc7cn(Cc8ccc(-c9nc%10cc(C(=N)NC(C)C)ccc%10[nH]9)o8)nn7)cc6)cc5)nn4)o3)nc2c1 target="Calf thymus DNA" val=Active

The molecule listed as Fc1ccc2[nH]c(-c3ccc(Cn4cc(COCc5cn(Cc6ccc(-c7nc8cc(F)ccc8[nH]7)o6)nn5)nn4)o3)nc2c1 shows Activity equal to inactive

Briefly, Activity measured for c1cc(-c2ccc(OCc3cn(Cc4ccc(-c5nc6cc(C7=NCCN7)ccc6[nH]5)o4)nn3)cc2)ccc1OCc1cn(Cc2ccc(-c3nc4cc(C5=NCCN5)ccc4[nH]3)o2)nn1 : Active

Just so you know, measured Activity for Cl.Cl.N=C(N)c1ccc2[nH]c(-c3ccc(Cn4cc(CCCc5cn(Cc6ccc(-c7nc8cc(C(=N)N)ccc8[nH]7)o6)nn5)nn4)o3)nc2c1 came out at Active

Lab note: measured Activity of c1ccc2[nH]c(-c3ccc(Cn4cc(CCCc5cn(Cc6ccc(-c7nc8ccccc8[nH]7)o6)nn5)nn4)o3)nc2c1 was inactive

Just so you know, measured Activity for Cl.Cl.c1cc2[nH]c(-c3ccc(Cn4cc(CCCc5cn(Cc6ccc(-c7nc8cc(C9=NCCN9)ccc8[nH]7)o6)nn5)nn4)o3)nc2cc1C1=NCCN1 came out at Active

Entry Fc1ccc2[nH]c(-c3ccc(Cn4cc(COc5ccc(-c6ccc(OCc7cn(Cc8ccc(-c9nc%10cc(F)ccc%10[nH]9)o8)nn7)cc6)cc5)nn4)o3)nc2c1 ; Activity = inactive

GET /value?item= Clc1ccc2[nH]c(-c3ccc(Cn4cc(COCc5cn(Cc6ccc(-c7nc8cc(Cl)ccc8[nH]7)o6)nn5)nn4)o3)nc2c1 &field=Activity returns inactive
